Origin of values: the supplement of paper PMC12764529

# method_description: folding stability dG unfold from trypsin proteolysis; higher = more stable
Please use the following folding stability dG unfold ranges when assigning a class: lo (below 0.7 kcal/mol), med (0.7 kcal/mol to below 2 kcal/mol), hi (2 kcal/mol or more)

Previously resolved entries follow.
SAGGSAPKIRVEIEIDPDNGTIKLEVQHDGKPVFEMTMRIDPNGKIKEMKFTFYVDPDNGKLEIMMSAGGSA [r15_770_TrROS] ... hi
SASLPPGQVRSLPVDVTIETPEGQPRFTEPATLEPPPRLVVDVALPLPPGEVTITIRLPGPGVTLTIERSAG [r14_280_JUSTAS] ... lo

**Query** State the class of the sequence shown: SMPLIIIAKKNKDGTGTILIKKGDKVIEIEFEKNIKPEELKKKAIETALTLKKKTEELGIPIEIKEIIFESA [r9_751_TrMRF]
**Result** med

**Query** State the class of the sequence shown: SAGGWITVNQIRDLAKELPPGWRIKIKIEYPGKKHEHTIPPGDPITIPPNMPPEDITRIEITEIEPYSAGGS [r16_97_TrROS]
**Result** lo

**Query** State the class of the sequence shown: SAGGSAGGSAGGVEIVIMFPRGMPPEQFAKMIAKWLRRQGLPPNVKVDIKIIPIDPDDMSAGGSAGGSAGGS [r10_746_TrROS]
**Result** hi

**Query** State the class of the sequence shown: SAGGSAGGSAGGIEKFLEKHPELKIKKEIKIKIPYKTKDGKEFEVEYKIFYLTSEDEEDSAGGSAGGSAGGS [r10_0_TrMRF]
**Result** med

**Query** State the class of the sequence shown: SAGGSAGGSAGKITIHMDPEGNYMVKTPGNERQFDSPEDADELADEFLLNGLPIEIHPHPSAGGSAGGSAGG [r17_35_TrROS]
**Result** lo

**Query** State the class of the sequence shown: SAGGSAMIITFDKKTGKLTIYNKETGKKIEAEITKIEKIPEDKKYVKIKIKNKKTKKEFEFIFKIKSAGGSA [r15_209_TrROS_Hall]
**Result** hi

**Query** State the class of the sequence shown: SAGFGVYKHKYKYDNDDGNPKPKKPEEEPVEPAPPIEPLPIPIRLPDGQPFTFTILSISPKNNNISLNGSAG [r5_735_TrROS]
**Result** lo

**Query** State the class of the sequence shown: SAGGSAGGGMKFVKVTLEYAGGEVREYLFTTSSSDSTVEVVIEDLPPEKGARITEITEYPASLLSAGGSAGG [r6_530_JUSTAS]
**Result** med

**Query** State the class of the sequence shown: SAGVVEELLKEFPDVEKVTSSSYPGPKVSQYVIYFPTPSGKKVTIKITVTQPRLPSNSTTSELSIELNDSAG [r5_398_JUSTAS]
**Result** hi

**Query** State the class of the sequence shown: SAGGSAGGSAKEIEVRVEKDEETGKYRVTIRVDGKEIEIEVDVPKTLEEAERKAKELLKELSAGGSAGGSAG [r3_104_TrROS_Hall]
**Result** hi
